- SUBJECT_OF_TEST: T1, human-CD40-monomer protein (human, UniProt P25942 21-193, limits assumed)
- T1 construct: Soluble monomer generated in house, used as SPR analyte; also called hCD40; hCD40-monomer
- PROTOCOL_DESCRIPTION: SPR, Ab captured on protein A, hCD40 monomer 500 and 50 nM, 1:1 fit; supernatant
- Protocol: Titer analysis was performed using Biolayer Interferometry (BLI) on an Octet RED instrument (Fortebio) by capturing antibodies from supernatant using protein A sensor tips and measuring capture response with respect to a standard curve obtained using a control antibody sample. SPR data were obtained by capturing antibodies on a protein A surface and testing the binding of 500 nM and 50 nM injections of human-CD40 analyte, using a BIAcore™ T200 instrument (GE Healthcare). […]
Attribute: pKd
Please report pKd as the negative decimal logarithm of the molar concentration, giving only the number.

- BINDER: "Y12XX-hz5 (antibody, human IgG1, kappa, V domains shown, Humanized, IgG1-P238K; supernatant sample) VH: QVQLVQSGAEVKKPGSSVKVSCKASGYAFTSYWMHWVRQRPGQGLEWMGYINPTTGYSAYNQKFKDKATLTADKSTSTAYMELSSLRSEDTAVYYCARWDPRPFAYWGQGTLVTVSS VL: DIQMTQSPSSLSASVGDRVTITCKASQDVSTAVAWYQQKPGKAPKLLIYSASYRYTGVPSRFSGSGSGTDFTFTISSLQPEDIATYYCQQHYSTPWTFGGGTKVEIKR"
  pKd: 8.14

Next binder, pKd to be filled in.
Query string: If you can, please state the reported pKd value of Y12XX-hz1 (antibody, human IgG1, kappa, V domains shown, Humanized, IgG1-P238K; supernatant sample) VH: QVQLVQSGAEVKKPGSSVKVSCKASGYAFTSYWMHWVRQAPGQGLEWMGFINPTTGYSEYNQKFKDRVTITADKSTSTAYMELSSLRSEDTAVYYCARWGLPPFAYWGQGTLVTVSS VL: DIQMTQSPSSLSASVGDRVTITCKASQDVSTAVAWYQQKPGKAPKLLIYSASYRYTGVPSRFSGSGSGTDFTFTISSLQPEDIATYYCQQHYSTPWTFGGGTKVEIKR .
Result string: 8.96
